experiment: solvent given as SMILES; conditions: in COCCO
Endpoint: solvation free energy, 298 K (kJ/mol)
Give the value, in units of kJ/mol, as a plain number.

Check out these entries, answers already filled in.
> print(dat)
      compound                      endpoint  unit.tag  reported
1   CCC1CCCCC1  solvation free energy, 298 K    kJ/mol       -17
2   CCCCCCCCCC  solvation free energy, 298 K    kJ/mol     -19.9
3  CCCCCCCCCCC  solvation free energy, 298 K    kJ/mol     -21.5
4         [HH]  solvation free energy, 298 K    kJ/mol       7.7
5     C1COCCO1  solvation free energy, 298 K    kJ/mol     -20.6

solvation free energy, 298 K reported for this compound Cc1cccc(C)c1 : -21.3

solvation free energy, 298 K reported for this compound CC1CCCCC1 : -14.5

solvation free energy, 298 K reported for this compound C=CC1CC=CCC1 (stereo not given) : -18.5

solvation free energy, 298 K reported for this compound FC(F)=C(F)C(F)(F)F : 16.2

solvation free energy, 298 K reported for this compound CC1CCCC1 : -12.5
